target.under.test: JARID1B (Homo sapiens)
Construct: The FLAG tagged full length JARID1B enzyme was expressed in Sf21 insect cells using FLAG-JARID1B baculoviruses; FLAG (N); made in house; host or cells: Sf21 insect cells (baculovirus)
Sequence (Q9UGL1 whole entry): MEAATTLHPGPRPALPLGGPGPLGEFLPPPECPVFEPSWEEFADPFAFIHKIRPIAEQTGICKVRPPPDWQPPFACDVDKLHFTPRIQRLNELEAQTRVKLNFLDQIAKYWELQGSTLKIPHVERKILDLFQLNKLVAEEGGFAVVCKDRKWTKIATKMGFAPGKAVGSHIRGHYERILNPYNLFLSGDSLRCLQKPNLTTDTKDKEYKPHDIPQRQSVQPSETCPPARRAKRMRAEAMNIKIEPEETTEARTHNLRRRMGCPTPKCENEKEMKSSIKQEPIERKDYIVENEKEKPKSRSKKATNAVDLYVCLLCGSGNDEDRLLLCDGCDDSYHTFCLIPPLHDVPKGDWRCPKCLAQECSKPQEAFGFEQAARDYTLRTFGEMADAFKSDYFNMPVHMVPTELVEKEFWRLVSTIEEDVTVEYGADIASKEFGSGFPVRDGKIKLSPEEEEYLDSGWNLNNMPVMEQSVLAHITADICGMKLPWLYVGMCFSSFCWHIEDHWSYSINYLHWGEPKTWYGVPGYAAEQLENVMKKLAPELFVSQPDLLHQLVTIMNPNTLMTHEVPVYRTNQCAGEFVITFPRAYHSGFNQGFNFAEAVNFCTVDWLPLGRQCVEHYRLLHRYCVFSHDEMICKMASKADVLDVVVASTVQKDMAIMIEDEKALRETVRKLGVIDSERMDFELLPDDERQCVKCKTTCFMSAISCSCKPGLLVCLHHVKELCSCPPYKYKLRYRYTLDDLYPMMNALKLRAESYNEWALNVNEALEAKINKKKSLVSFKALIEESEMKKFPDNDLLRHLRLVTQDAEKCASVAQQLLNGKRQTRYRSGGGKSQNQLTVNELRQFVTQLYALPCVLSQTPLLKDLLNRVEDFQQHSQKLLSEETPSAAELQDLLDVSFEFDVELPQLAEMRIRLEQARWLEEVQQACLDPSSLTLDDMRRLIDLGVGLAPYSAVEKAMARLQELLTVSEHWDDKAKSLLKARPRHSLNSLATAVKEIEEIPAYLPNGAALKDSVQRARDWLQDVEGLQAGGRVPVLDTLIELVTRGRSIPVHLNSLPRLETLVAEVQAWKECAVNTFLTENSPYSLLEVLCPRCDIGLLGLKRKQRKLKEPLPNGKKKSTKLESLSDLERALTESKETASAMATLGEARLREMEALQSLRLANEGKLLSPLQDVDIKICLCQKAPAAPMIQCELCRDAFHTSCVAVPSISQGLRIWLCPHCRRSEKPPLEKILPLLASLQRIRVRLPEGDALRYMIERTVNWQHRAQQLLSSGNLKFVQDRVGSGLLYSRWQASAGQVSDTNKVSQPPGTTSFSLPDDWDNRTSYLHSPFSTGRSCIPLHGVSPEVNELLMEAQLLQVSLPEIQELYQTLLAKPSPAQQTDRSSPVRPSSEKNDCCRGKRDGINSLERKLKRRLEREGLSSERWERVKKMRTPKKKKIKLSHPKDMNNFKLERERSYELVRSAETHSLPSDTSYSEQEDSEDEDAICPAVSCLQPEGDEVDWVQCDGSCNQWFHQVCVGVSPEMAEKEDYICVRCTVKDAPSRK
assay.details: FLAG-JARID1B histone demethylase assay with AlphaScreen detection (HTS and dose response);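 note: FLAG-tagged JARID1B at 4 nM acting on a biotinylated H3K4me3 peptide, demethylation read by AlphaScreen luminescence, with hits checked against bio-H3K4me2 without enzyme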
Assay type: biochemical
condition: high-throughput screen, compound 20 μM, standard demethylase conditions (10 μM α-KG, 50 μM Fe (II)); read-out: Inhibitory effect (percent)
Catalogue of inhibition at 20 µM readings, one per entry.
Give the value in % but do not write % after it.

CCOC(=O)C(CCOc1cccc(CC)c1)C(=O)OCC [YU151071]
96.7
O=c1cc(-c2cc(O)c(O)c(O)c2)oc2cc(O)cc(O)c12 [YU155308, HIERACIN, reference compound]
40.7
Clc1cccc(N2CCN(Cc3ccc4ccccc4c3)CC2)c1 [YU105195]
38.9
CCCCC(=O)Nc1ccc(N(C)CCc2c(C)nn(C)c2C)c(C(=O)O)c1 [YU208232]
50.5
Cc1ccc(C(=O)Nc2cnc(N3CCN(c4ccccc4Cl)CC3)c(C(=O)O)c2)cc1 [YU208246]
44.5

Enquiry: Please look up its inhibition at 20 µM: COc1ccc(Cl)cc1NC(=S)Nn1cnnc1 [YU148611]
Return: 34.6

----------
Catalogue of Artifact Signal (percent) readings, one per entry.
assay.details: AlphaScreen counterscreen against bio-H3K4me2 peptide in the absence of enzyme (artifact signal);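 note: counterscreen run without enzyme against bio-H3K4me2 peptide to remove false positive hits from the JARID1 demethylase AlphaScreen screen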
condition: effect of the compound when incubated with bio-H3K4me2 peptide (counterscreen, no enzyme)
Structures can show the parent of a compound that is named as a salt.
Give the value in % but do not write % after it.

Check out these entries, answers already filled in.
Oc1cc(O)c2c(c1)O[C@H](c1cc(O)c(O)c(O)c1)[C@H](O)C2 [YU155087, EPIGALLOCATECHIN, reference compound]
24.76
COCCCNCCOc1cc(C(C)C)ccc1C [YU147245]
1.25
CCC(=O)Nc1cnc(N2CCN(c3ccc(Cl)cc3)CC2)c(C(=O)O)c1 [YU208250]
7.01
C[n+]1cc2c3c(ccc2c2ccc4cc5c(cc4c21)OCO5)OCO3 [YU033662, SANGUINARINE SULFATE, reference compound]
9.21
O=C(NNC(=S)NCC1CCCO1)c1ccccn1 (stereo not shown) [YU148374]
22.77

Enquiry: Please look up its Artifact Signal (percent): CN(C)C(=S)SSC(=S)N(C)C [YU034426, THIRAM, reference compound]
Return: 7.49

Enquiry: Likewise for Cc1nn2c(=O)[nH]c3sc4c(c3c2nc1=O)CC(C)(C)OC4 [YU152236] ?
Return: 5.71

Enquiry: Likewise for C[n+]1cc2c3c(ccc2c2ccc4cc5c(cc4c21)OCO5)OCO3.O=S(=O)([O-])O [YU155443, SANGUINARINE SULFATE, reference compound] ?
Return: −11.85

Enquiry: Likewise for COc1cccc2c1C(=O)c1c(O)c3c(c(O)c1C2=O)C[C@@](O)(C(C)=O)C[C@@H]3O[C@H]1C[C@H](N)[C@H](O)[C@H](C)O1 [YU155488, DAUNORUBICIN, reference compound] ?
Return: 3.31

Enquiry: Likewise for CCN(CC)C(=S)SSC(=S)N(CC)CC [YU035331, reference compound] ?
Return: −3.39

Enquiry: Likewise for O=c1c(O)c(-c2ccc(O)c(O)c2)oc2cc(O)ccc12 [YU155255, FISETIN, reference compound] ?
Return: 68.78

Enquiry: Likewise for S=C(Nc1cccc(Cl)c1Cl)Nn1cnnc1 [YU149002] ?
Return: 3.30

Enquiry: Likewise for N#CC(=Cc1ccc(O)c(O)c1)C(N)=S (single isomer, unassigned) [YU154834, TYRPHOSTIN 47, reference compound] ?
Return: 18.48

Enquiry: Likewise for COc1ccc(-c2coc3cc(O)ccc3c2=O)c(O)c1O [YU155016, KOPARIN, reference compound] ?
Return: 14.33

Enquiry: Likewise for Oc1cc(O)c2c(c1)O[C@H](c1ccc(O)c(O)c1)[C@@H](O)C2 [YU033631, CIANIDANOL, reference compound] ?
Return: 4.84

Enquiry: Likewise for CCC(=O)c1c(O)n(C)c(=O)n(C)c1=O [YU145029] ?
Return: 0.11
